Test system: biotinyl-Met-oxazolone
Assay: self-aminoacylation, catalytic enhancement (BMO) (fold over background); higher = more active; k-Seq, kA / k0A0; sequences stand for … in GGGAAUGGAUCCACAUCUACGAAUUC…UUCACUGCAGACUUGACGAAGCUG
Fewer inactive variants are shown than the library holds.
endpoint: self-aminoacylation

Give the reported value of self-aminoacylation for this record: CUAGUGCAAACAAUCGGUCUG [Fam1A.1 aminoacylation ribozyme variant]
0.962

Give the reported value of self-aminoacylation for this record: ACUACUCUGGUCAUCGAGUGA [Fam2.1 aminoacylation ribozyme variant]
5.17

Give the reported value of self-aminoacylation for this record: AUGACCCUGGACAUCGAGUGA [Fam2.1 aminoacylation ribozyme variant]
5.12

Give the reported value of self-aminoacylation for this record: AUGCACCUAGGUUAUCGGGUG [Fam2.2 aminoacylation ribozyme variant]
3.37

Give the reported value of self-aminoacylation for this record: CUACUGCCAACAAUCGGUCUG [Fam1A.1 aminoacylation ribozyme variant]
0.773

Give the reported value of self-aminoacylation for this record: UUUAACCUAGGUCAUCGGGUG [Fam2.2 aminoacylation ribozyme variant]
5.87

Give the reported value of self-aminoacylation for this record: CCACUCUUCAAACAAUCGGUC [Fam1B.1 aminoacylation ribozyme variant]
1.44

Give the reported value of self-aminoacylation for this record: CUACCUCAACCAAUCGGUCUG [Fam1A.1 aminoacylation ribozyme variant]
0.811

====

Tested on: biotinyl-Leu-oxazolone
Experiment: self-aminoacylation, catalytic enhancement (BLO) (fold over background); higher = more active; k-Seq, kA / k0A0; sequences stand for … in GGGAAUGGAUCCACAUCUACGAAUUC…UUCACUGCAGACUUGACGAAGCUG
Variants at the floor of the assay were thinned out.
Please go through the items and note down their self-aminoacylation.
Respond numerically, and do not add a unit to the figure.

Give the reported value of self-aminoacylation for this record: AAGCUAGCUAAUAGUCGCAAG [Fam3.1 aminoacylation ribozyme variant]
2.26

Give the reported value of self-aminoacylation for this record: CUACUACAAACUAUCGGUCUG [Fam1A.1 aminoacylation ribozyme variant]
0.713

Give the reported value of self-aminoacylation for this record: CAAUACUUCAAGCAAUCGGUC [Fam1B.1 aminoacylation ribozyme variant]
0.986

Give the reported value of self-aminoacylation for this record: AAGUUUCCUAAUACUCGCAAG [Fam3.1 aminoacylation ribozyme variant]
0.891

Give the reported value of self-aminoacylation for this record: CUACUUCAAACAAUCGGUCAU [Fam1A.1 aminoacylation ribozyme variant]
0.892

Give the reported value of self-aminoacylation for this record: AUUCAUCUAGAUCAUCGGGUG [Fam2.2 aminoacylation ribozyme variant]
4.1

Give the reported value of self-aminoacylation for this record: AAGUUUGGUAAUAGUCGCAAG [Fam3.1 aminoacylation ribozyme variant]
1.25

Give the reported value of self-aminoacylation for this record: AUACACCUAAGUCAUCGGGUG [Fam2.2 aminoacylation ribozyme variant]
5.83

Give the reported value of self-aminoacylation for this record: CUACUUCAAACAAUCCGUCGG [Fam1A.1 aminoacylation ribozyme variant]
0.901

Give the reported value of self-aminoacylation for this record: AUUCACGUAGGUGAUCGGGUG [Fam2.2 aminoacylation ribozyme variant]
4.12

Give the reported value of self-aminoacylation for this record: AGUACCCUGCUCAUCGAGUGA [Fam2.1 aminoacylation ribozyme variant]
1.77

Give the reported value of self-aminoacylation for this record: CCACACUUCAGGCAAUCGGUA [Fam1B.1 aminoacylation ribozyme variant]
1.23

Give the reported value of self-aminoacylation for this record: CUUCCCCUAGGUCAUCGGGUG [Fam2.2 aminoacylation ribozyme variant]
10.5

Give the reported value of self-aminoacylation for this record: CCAUACUUCAAGUAAUCGGUC [Fam1B.1 aminoacylation ribozyme variant]
1.07

Give the reported value of self-aminoacylation for this record: AUUCACCUAGGGCAUCGGGGG [Fam2.2 aminoacylation ribozyme variant]
3.63

Give the reported value of self-aminoacylation for this record: AUUCACCUAGGGCAUCAGGUG [Fam2.2 aminoacylation ribozyme variant]
1.7

Give the reported value of self-aminoacylation for this record: CUACUUCAAACAAUCGAUCAG [Fam1A.1 aminoacylation ribozyme variant]
0.659

Give the reported value of self-aminoacylation for this record: AUUCACCUAGCUCCUCGGGUG [Fam2.2 aminoacylation ribozyme variant]
2.24
